Tested on: tracheae (zig-zag strips from passively sensitized guinea pigs)
Experiment: passive Schultz-Dale reaction (bronchodilatory effects), relaxation of antigen-contracted tracheal strips
Set-up: species or system guinea pig (male Hartley)
Details: Cavia porcellus; EWA (1 μg/ml)-induced contraction, guinea pig trachea, 37° C., cumulative addition; read-out: Bronchodilatory effect IC50 (concentration to produce 50% relaxation)
Measured pIC50 accompanies every entry in the list below.
Expect pIC50 as a plain number equal to -log10 of the molar concentration.

{"compound": "CC(CC1OCCc2ccccc21)NCC(O)c1cccs1 (stereo not drawn)", "pIC50": 7.44}
{"compound": "CC(CC1OCCc2ccccc21)NCC(O)Cc1ccccc1 (stereo not drawn)", "pIC50": 5.04}
{"compound": "CC(CC1OCCc2ccccc21)NCC(O)c1ccc(F)cc1 (stereo not drawn)", "pIC50": 7.21}
{"compound": "CC(CC1OCCc2ccccc21)NC[C@@H](O)c1ccc(O)cc1 (stereo partly drawn)", "pIC50": 8.56}
{"compound": "CC(CC1CCCc2ccccc21)NCC(O)c1ccc(O)cc1 (stereo not drawn)", "pIC50": 8.71}
{"compound": "CC(CC1OCCc2ccccc21)NCC(O)c1ccccc1O (stereo not drawn)", "pIC50": 7.28}

Exam item: Entry under review: CC(CC1OCCc2ccccc21)NCC(O)c1cc(O)cc(O)c1 (stereo not drawn) . Reported pIC50?
Marked response: 8.93

Exam item: Entry under review: COC(CNC(C)CC1OCCc2ccccc21)c1ccc(O)cc1 (stereo not drawn) . Reported pIC50?
Marked response: 8.62

Exam item: Entry under review: CC(CC1OCCc2ccccc21)NCC(O)c1ccccc1 (stereo not drawn) . Reported pIC50?
Marked response: 6.59

Data provenance: patent US5128369A
